Consider the following pIC50 values measured on Inosine-5'-monophosphate dehydrogenase 2 (Homo sapiens).
Note: pIC50 values are expressed as the negative base-10 logarithm of concentration in M.

Example results:
INSERT INTO measurements (compound, result) VALUES
  ('Cc1ccccc1-c1cnc(Nc2ccc3c(C#N)cn(C)c3c2)o1', 6.36),
  ('CC[C@H](CC#N)OC(=O)NCc1cccc(NC(=O)Nc2ccc(C#N)c(OC)c2)c1', 8.22),
  ('COc1cc(Nc2ncc(-c3ccccc3)o2)ccc1C#N', 6.40),
  ('Cn1cc(C#N)c2ccc(Nc3ncc(-c4ccc(CNC(=O)c5ccccc5)cc4)o3)cc21', 7.00),
  ('Cn1cc(C#N)c2ccc(NC(=O)Nc3ccccc3)cc21', 6.20);

Give reported pIC50 for Cn1cc(C#N)c2ccc(Nc3ncc(-c4ccccc4CN)o3)cc21 (Inosine-5'-monophosphate dehydrogenase 2 (Homo sapiens))
6.55

Give reported pIC50 for Cc1cccc(-c2cnc(Nc3ccc4c(C#N)cn(C)c4c3)o2)c1 (Inosine-5'-monophosphate dehydrogenase 2 (Homo sapiens))
6.31

Give reported pIC50 for Cn1cc(C#N)c2ccc(Nc3ncc(-c4cccc(CNC(=O)OC5CCOC5)c4)o3)cc21 (stereo not given) (Inosine-5'-monophosphate dehydrogenase 2 (Homo sapiens))
6.59

Give reported pIC50 for Cn1cc(C#N)c2ccc(Nc3ncc(-c4ccccc4CNC(=O)OC4CCOC4)o3)cc21 (stereo not given) (Inosine-5'-monophosphate dehydrogenase 2 (Homo sapiens))
6.38

Give reported pIC50 for Cn1cc(C#N)c2ccc(Nc3ncc(-c4ccccc4CNC(=O)OCCC#N)o3)cc21 (Inosine-5'-monophosphate dehydrogenase 2 (Homo sapiens))
6.38

###

// reported IC50 per item
Test system: CCRF-CEM
experiment summary: cells
experimental context: Homo sapiens
Description: Inhibition of CEM (human leukemia) cell proliferation.
Enter your answer as a number in µM; do not include the unit.

INSERT INTO measurements (compound, units_of_measure, result) VALUES
  ('Cn1cc(C#N)c2ccc(Nc3ncc(-c4ccccc4CN)o3)cc21', 'µM', 1.1),
  ('Cn1cc(C#N)c2ccc(Nc3ncc(-c4ccccc4)o3)cc21', 'µM', 8),
  ('Cn1cc(C#N)c2ccc(Nc3ncc(-c4ccc(CNC(=O)C(C)(C)C)cc4)o3)cc21', 'µM', 4.9),
  ('COc1cc(NC(=O)Nc2cccc(CNC(=O)O[C@H]3CCOC3)c2)ccc1-c1cnco1 [MERIMEPODIB]', 'µM', 0.49),
  ('Cn1cc(C#N)c2ccc(Nc3ncc(-c4cccc(NC(=O)c5ccccc5)c4)o3)cc21', 'µM', 3.5);

Moving on to the next compound.
Look up and state reported IC50 for Cn1cc(C#N)c2ccc(Nc3ncc(-c4cccc(CNC(=O)c5cccc6ccccc56)c4)o3)cc21
2.5

###

measurement target: Inosine-5'-monophosphate dehydrogenase 2 (Homo sapiens, UniProt P12268)
experiment summary: Inhibitory activity tested against inosine-5'-monophosphate dehydrogenase 2 (IMPDH-II) enzyme
Doc: threshold 0.2 µM (exclusive). Items with IC50 beneath it return condition met; others return condition not met.

Is IC50 strictly under 0.2 µM for the entry COc1cc(NC(=O)Nc2cccc(C)c2)ccc1C#N ?
condition not met

Is IC50 strictly under 0.2 µM for the entry Cc1ccc(NC(=O)Nc2ccc3c(C#N)cn(C)c3c2)cc1 ?
condition not met

###

Test system: CCRF-CEM
experiment summary: cells
experimental context: Homo sapiens
// reported IC50 per item
Enter your answer as a number in µM; do not include the unit.

Example results:
INSERT INTO measurements (smiles_string, property_measured, result) VALUES
  ('Cn1cc(C#N)c2ccc(Nc3ncc(-c4cccc(CN)c4)o3)cc21', 'IC50', 3.5),
  ('COc1cc(Nc2ncc(-c3ccccc3N(C)C(=O)CN3CCOCC3)o2)ccc1-c1cnco1', 'IC50', 0.52);

Look up and state reported IC50 for Cn1cc(C#N)c2ccc(Nc3ncc(-c4cccc(CNC(=O)c5ccc6ccccc6c5)c4)o3)cc21
4.4
